target: Cellular tumor antigen p53 (Homo sapiens) (UniProt P04637); assay: TOX21_p53_BLA_p4_ratio: Tox21 HCT-116 p53 Agonism Beta-lactamase Assay, Ratio, Phase 4 (AID 2283601)
Sequence (P04637 whole entry, looked up): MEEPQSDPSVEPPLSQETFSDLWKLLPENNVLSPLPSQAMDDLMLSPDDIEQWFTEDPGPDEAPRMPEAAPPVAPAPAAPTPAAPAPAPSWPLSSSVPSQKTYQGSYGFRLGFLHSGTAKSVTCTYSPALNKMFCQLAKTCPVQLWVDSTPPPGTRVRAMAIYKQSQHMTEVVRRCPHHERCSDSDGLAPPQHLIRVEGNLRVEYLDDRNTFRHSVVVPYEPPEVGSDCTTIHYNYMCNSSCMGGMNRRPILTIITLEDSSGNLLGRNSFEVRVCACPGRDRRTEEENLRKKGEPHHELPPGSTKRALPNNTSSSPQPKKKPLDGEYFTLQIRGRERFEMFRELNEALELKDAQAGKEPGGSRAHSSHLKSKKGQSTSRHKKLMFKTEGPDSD
Results filed as inconclusive are left out. Active and inactive are the calls of the source. How the source made its calls: active means hit-call score of the fitted dose curve at least 0.9, where 1 is the maximum; inconclusive means response in the unintended direction; inactive means score below 0.9.
Respond using exactly one of the listed classes: active, inactive

compound: O=[N+]([O-])c1cc[n+]([O-])cc1
target-under-test: Cellular tumor antigen p53 (Homo sapiens) (UniProt P04637)
classification: inactive

compound: CCCC(=O)O[C@]1(C(=O)CCl)[C@@H](C)C[C@H]2[C@@H]3CCC4=CC(=O)C=C[C@]4(C)[C@@]3(F)C(=O)C[C@@]21C
target-under-test: Cellular tumor antigen p53 (Homo sapiens) (UniProt P04637)
classification: inactive

compound: CN1C[C@@H]2C[C@H]1CN2c1cc2c(cc1F)c(=O)c(C(=O)O)cn2C1CC1
target-under-test: Cellular tumor antigen p53 (Homo sapiens) (UniProt P04637)
classification: inactive

compound: COC(C)(OC)OC
target-under-test: Cellular tumor antigen p53 (Homo sapiens) (UniProt P04637)
classification: inactive

compound: CC1=C(C)C(=O)C(C(CCCCCC(=O)O)c2ccccc2)=C(C)C1=O (stereo unspecified)
target-under-test: Cellular tumor antigen p53 (Homo sapiens) (UniProt P04637)
classification: inactive

compound: CCOC(CN1CCN(CC(C)C(=O)c2ccccc2)CC1)c1ccccc1 (stereo unspecified)
target-under-test: Cellular tumor antigen p53 (Homo sapiens) (UniProt P04637)
classification: inactive

compound: CCO[Si](OCC)(OCC)OCC
target-under-test: Cellular tumor antigen p53 (Homo sapiens) (UniProt P04637)
classification: inactive

compound: C=C(C)C(=O)OCCC[Si](Cl)(Cl)Cl
target-under-test: Cellular tumor antigen p53 (Homo sapiens) (UniProt P04637)
classification: inactive

Task: Each compound tested received a call. Report the one for CCC(C)(C)c1ccc(CC(C)CN2C[C@@H](C)O[C@@H](C)C2)cc1 (stereo partly specified) .
Result: inactive

Task: Each compound tested received a call. Report the one for CCC(C)Nc1ccc(NC(C)CC)cc1 (stereo unspecified) .
Result: inactive

Task: Each compound tested received a call. Report the one for OC[C@@H](O)[C@@H](O[C@@H]1O[C@H](CO)[C@H](O)[C@H](O)[C@H]1O)[C@H](O)[C@@H](O)CO .
Result: inactive

* * *

read-out: Tissue Factor, F3 (gene 2152); assay: BSK_LPS_TissueFactor: BioMAP Diversity Plus: LPS Assay for Tissue Factor Biomarker Activity (AID 2283084); settings: primary human HUVEC with PBMC; actives raise or lower the signal
Activity calls are given as the source filed them. Rule for the calls: active = hit-call score of the fitted dose curve at least 0.9, where 1 is the maximum; inactive = score below 0.9.
Respond using exactly one of the listed classes: Yes = active, No = inactive

Task: Each compound tested received a call. Report the one for CC(C)CC(=O)CC(C)CC(C)C (stereo not drawn) .
Result: No

Task: Each compound tested received a call. Report the one for COc1cc(CNC(=O)CCCC/C=C/C(C)C)ccc1O .
Result: No

* * *

assay: IUF_NPC4_neurite_area_120hr: Leibniz Research Institute for Environmental Medicine (IUF) 120-hour Neuronal Morphology Assay for Neurite Area (NPC4) (AID 2284305)
Inconclusive results are not listed. Activity calls are given as the source filed them. The calls were made as follows: active = hit-call score of the fitted dose curve at least 0.9, where 1 is the maximum; inconclusive = response in the unintended direction; inactive = score below 0.9.
Respond using exactly one of the listed classes: active, inactive

Worked examples follow.
compound: [Cl-].[Cl-].[NH2-].[NH2-].[Pt+4]
classification: inactive
//
compound: CN(C)CCC(c1ccc(Cl)cc1)c1ccccn1 (stereo not given)
classification: inactive

Task: Each compound tested received a call. Report the one for Oc1cccc2ccccc12 .
Result: inactive

Task: Each compound tested received a call. Report the one for Cc1c(O)cccc1C(=O)N[C@@H](CSc1ccccc1)[C@H](O)CN1C[C@H]2CCCC[C@H]2C[C@H]1C(=O)NC(C)(C)C .
Result: active

Task: Each compound tested received a call. Report the one for CC(C)(C)NCC(O)c1cc(O)cc(O)c1 (stereo not given) .
Result: inactive

* * *

target: Cellular tumor antigen p53 (Homo sapiens) (UniProt P04637); test: TOX21_p53_BLA_p5_ratio: Tox21 HCT-116 p53 Agonism Beta-lactamase Assay, Ratio, Phase 5 (AID 2283599)
Inconclusive results are not listed. Activity calls are given as the source filed them. How the source made its calls: active means hit-call score of the fitted dose curve at least 0.9, where 1 is the maximum; inconclusive means response in the unintended direction; inactive means score below 0.9.
Respond using exactly one of the listed classes: active, inactive

Worked examples follow.
molecule: O=P(O)(O)C(O)(Cn1ccnc1)P(=O)(O)O
classification: inactive

molecule: Cc1c(N(C)CS(=O)(=O)O)c(=O)n(-c2ccccc2)n1C
classification: inactive

molecule: CO[C@H]1/C=C/O[C@@]2(C)Oc3c(C)c(O)c4c(O)c(cc(O)c4c3C2=O)NC(=O)/C(C)=C\C=C\[C@H](C)[C@H](O)[C@@H](C)[C@@H](O)[C@@H](C)[C@H](OC(C)=O)[C@@H]1C
classification: inactive

molecule: CCOC(=O)O[C@]1(C(=O)COC(=O)CC)CC[C@H]2[C@@H]3CCC4=CC(=O)C=C[C@]4(C)[C@H]3[C@@H](O)C[C@@]21C
classification: inactive

molecule: CO[C@@]12[C@H](COC(N)=O)C3=C(C(=O)C(C)=C(N)C3=O)N1C[C@@H]1N[C@@H]12
classification: active

molecule: CC(C)[C@H](N)C(=O)OCC(CO)OCn1cnc2c(=O)[nH]c(N)nc21 (stereo partly specified)
classification: inactive

Task: Each molecule tested received a call. Report the one for CCn1cc(C(=O)O)c(=O)c2cc(F)c(N3CCN(C)CC3)cc21 .
Result: inactive

Task: Each molecule tested received a call. Report the one for CCCCCCCCCCCCCCCC[N+](C)(C)CCN(Cc1ccc(OC)cc1)c1ncccn1 .
Result: inactive

Task: Each molecule tested received a call. Report the one for C=C(C)C(=O)OCCN(CC)CC .
Result: inactive

Task: Each molecule tested received a call. Report the one for Cc1c(Cl)cccc1Nc1ccccc1C(=O)O .
Result: active

Task: Each molecule tested received a call. Report the one for COC(=O)[C@H]1[C@H]2C[C@@H]3c4[nH]c5cc(OC)ccc5c4CCN3C[C@H]2C[C@@H](OC(=O)/C=C/c2cc(OC)c(OC)c(OC)c2)[C@@H]1OC .
Result: inactive

Task: Each molecule tested received a call. Report the one for Clc1ccc2n[nH]nc2c1 .
Result: active

* * *

biological target: Cellular tumor antigen p53 (Homo sapiens) (UniProt P04637); assay: TOX21_p53_BLA_p4_ratio: Tox21 HCT-116 p53 Agonism Beta-lactamase Assay, Ratio, Phase 4 (AID 2283601)
Records with an inconclusive call do not appear. Calls of active or inactive are those of the source. How the source made its calls: active means hit-call score of the fitted dose curve at least 0.9, where 1 is the maximum; inconclusive means response in the unintended direction; inactive means score below 0.9.
Respond using exactly one of the listed classes: active, inactive

molecule: CCN(CC)CCNC(=O)c1cc(Cl)c(N)cc1OC
classification: inactive

molecule: C[C@]12C=CC(=O)N[C@@H]1CC[C@@H]1[C@@H]2CC[C@]2(C)[C@@H](C(=O)Nc3cc(C(F)(F)F)ccc3C(F)(F)F)CC[C@@H]12
classification: inactive

molecule: CC1(S(=O)(=O)O)CC(=O)c2ccccc2C1=O (configuration not stated)
classification: inactive

molecule: OCCOCC#CCOCCO
classification: inactive

molecule: CC(CCC(=O)O)C(=O)O (configuration not stated)
classification: inactive

molecule: CC(C)=CCC/C(C)=C/CC/C(C)=C/CCC(=O)OC/C=C(\C)CCC=C(C)C
classification: inactive

molecule: CCCCCCCCCCCl
classification: inactive

molecule: CC1=CC(C)(C)Nc2ccccc21
classification: inactive

Task: Each molecule tested received a call. Report the one for NC1CCN(c2cccc(Cl)n2)CC1 .
Result: inactive

Task: Each molecule tested received a call. Report the one for CS(=O)(=O)c1ccc([C@@H](O)[C@@H](CO)NC(=O)C(Cl)Cl)cc1 .
Result: inactive

Task: Each molecule tested received a call. Report the one for CC1=C(/C=C/C(C)=C/C=C/C(C)=C/C=C/C=C(C)/C=C/C=C(C)/C=C/C2=C(C)C[C@@H](O)CC2(C)C)C(C)(C)C[C@H](O)C1 .
Result: active

Task: Each molecule tested received a call. Report the one for O=S(=O)(O)c1ccc2nc(-c3ccccc3)[nH]c2c1 .
Result: inactive

Task: Each molecule tested received a call. Report the one for COc1cc(NS(=O)(=O)c2ccc(N)cc2)nc(OC)n1 .
Result: inactive

Task: Each molecule tested received a call. Report the one for O=C(O)c1cc(Cl)cc(Cl)c1O .
Result: inactive

Task: Each molecule tested received a call. Report the one for O=C(O)Cc1ccc(-c2ccccc2)cc1 .
Result: inactive

Task: Each molecule tested received a call. Report the one for Cc1ccc2nc(N)[nH]c(=O)c2c1Sc1ccncc1 .
Result: inactive

* * *

target: human Ephrin type-A Receptor 1 (EphA1), EPHA1 (gene 2041); test: NVS_ENZ_hEphA1: NovaScreen (NVS) Enzymatic Assay for human Ephrin type-A Receptor 1 (EphA1) (AID 2283158);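 further: activity is signal loss versus DMSO meaning EphA1 kinase inhibition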
Records with an inconclusive call do not appear. Calls of active or inactive are those of the source. The calls were made as follows: active = hit-call score of the fitted dose curve at least 0.9, where 1 is the maximum; inconclusive = response in the unintended direction; inactive = score below 0.9.
Respond using exactly one of the listed classes: class 1 (active), class 0 (inactive)

Worked examples follow.
molecule: Clc1ccccn1
target-under-test: human Ephrin type-A Receptor 1 (EphA1), EPHA1 (gene 2041)
classification: class 1
//
molecule: CCO[Si](OCC)(OCC)c1ccccc1
target-under-test: human Ephrin type-A Receptor 1 (EphA1), EPHA1 (gene 2041)
classification: class 0
//
molecule: CCCOCCC
target-under-test: human Ephrin type-A Receptor 1 (EphA1), EPHA1 (gene 2041)
classification: class 0
//
molecule: COc1ccccc1OCC(O)CO (stereo unspecified)
target-under-test: human Ephrin type-A Receptor 1 (EphA1), EPHA1 (gene 2041)
classification: class 0

Task: Each molecule tested received a call. Report the one for N#CCN(CC#N)CCN(CC#N)CC#N .
Result: class 0

Task: Each molecule tested received a call. Report the one for C[N+](C)(C)CC(=O)[O-] .
Result: class 0

src = PubChem BioAssay (EPA / NIEHS)
